Where do the numbers come from? From patent US20100029654A1.

Test system: Aβ1-40
protocol: Aβ1-40 content in conditioned medium of primary cortico-hippocampal neuron cultures from Tg2576 mice (ELISA; primary and secondary dose-response screening)
Format: cell-based, mouse
condition_notes: Mus musculus, Neuron; Table IV, dose-response 0.01-100 μM; read-out: EC50 (M): Ab-lowering activity Abeta1-40
Counter-ions that a name gives are not always drawn.
attribute_measured: log10 EC50 (log10 of the value in M)
In plain terms, each number is the log10 of measured EC50 in M.

Below, each entry is followed by its recorded log10 EC50 result.
molecule | system_tested | value
CCCCc1nc(Cl)c(CO)n1Cc1ccc(-c2ccccc2-c2nn[nH]n2)cc1 | Aβ1-40 | -3.93
NNc1nncc2ccccc12 [Hydralazine Hydrochloride] | Aβ1-40 | -5.03
N=C(N)NC(=O)c1nc(Cl)c(N)nc1N [Amiloride Hydrochloride] | Aβ1-40 | -4.06
COC(=O)C1=C(C)NC(C)=C(C(=O)OCCN(C)Cc2ccccc2)C1c1cccc([N+](=O)[O-])c1 (centres unmarked) [Nicardipine Hydrochloride] | Aβ1-40 | -4.44

# input Identify measured log10 EC50 corresponding to COc1ccccc1OCCNCC(O)COc1cccc2[nH]c3ccccc3c12 (centres unmarked)
# output -4.18

###

Listed here are compounds together with their documented LDH at E-5M % of change.
Test system: primary cortico-hippocampal neuron cultures
protocol: lactate dehydrogenase (LDH) activity assay in parallel neuron cultures
condition_notes: drug at E-5M
Where a name gives a salt, the structure may show the parent alone.
Write the value in % as a bare number.

compound | endpoint_unit | value
COC(=O)C1=C(C)NC(C)=C(C(=O)OC)C1c1ccccc1[N+](=O)[O-] | % | 12.0

# input Return LDH at E-5M % of change for the following compound: N=C(N)NC(=O)c1nc(Cl)c(N)nc1N [Amiloride Hydrochloride]
# output 6.4

# input Answer with reported LDH at E-5M % of change of Cc1ccc(N(CC2=NCCN2)c2cccc(O)c2)cc1 [Phentolamine Hydrochloride]
# output −3.4

# input Return LDH at E-5M % of change (reported value) for this compound: NNc1nncc2ccccc12 [Hydralazine Hydrochloride]
# output −1.2

# input Annotate the compound CC(C)N(CCC(C(N)=O)(c1ccccc1)c1ccccn1)C(C)C (centres unmarked) [Disopyramide Phosphate] with its measured LDH at E-5M % of change.
# output −3.7

# input State, in one line, measured LDH at E-5M % of change of COC(=O)[C@H]1[C@H]2C[C@@H]3c4[nH]c5cc(OC)ccc5c4CCN3C[C@H]2C[C@@H](OC(=O)c2cc(OC)c(OC)c(OC)c2)[C@@H]1OC
# output −3.4

# input Please list LDH at E-5M % of change recorded for the compound COCCOC(=O)C1=C(C)NC(C)=C(C(=O)OC(C)C)C1c1cccc([N+](=O)[O-])c1 (centres unmarked)
# output −4.0

# input Name the recorded LDH at E-5M % of change of the compound listed here: CCOC(=O)C1=C(C)NC(C)=C(C(=O)OC)C1c1cccc([N+](=O)[O-])c1 (centres unmarked)
# output 5.0

###

Tested on: primary cortico-hippocampal neuron cultures
protocol: MTT in primary screening
condition_notes: Primary Screening; table sorted by Aβ1-40
Where a name gives a salt, the structure may show the parent alone.
attribute_measured: MTT (% of ctl)

Completed entries (count: 5):
compound | MTT (% of ctl)
CCOC(=O)C1=C(C)NC(C)=C(C(=O)OC)C1c1cccc([N+](=O)[O-])c1 (stereo not drawn) [Nitrendipine] | 100.8 % of ctl
CCN(CC)CCNC(=O)c1ccc(N)cc1 [Procainamide Hydrochloride] | 96.8 % of ctl
CC(C)(C)NCC(O)COc1cccc2[nH]c(=O)[nH]c12 (stereo not drawn) | 97.1 % of ctl
COc1ccc([C@@H]2Sc3ccccc3N(CCN(C)C)C(=O)[C@@H]2OC(C)=O)cc1 [Diltiazem Hydrochloride] | 97.8 % of ctl
Cc1cccc(Nc2ccncc2S(=O)(=O)NC(=O)NC(C)C)c1 [Torsemide] | 99.2 % of ctl

# input Answer with the recorded MTT (% of ctl) of Cc1cc(C(C)(C)C)cc(C)c1CC1=NCCN1 [Xylometazoline Hydrochloride] only.
# output 88.2 % of ctl

# input For N=C(N)NC(=O)c1nc(Cl)c(N)nc1N [Amiloride Hydrochloride] , write its MTT (% of ctl).
# output 80.8 % of ctl

# input Give MTT (% of ctl) for the following compound: C[C@]12CC[C@H]3[C@@H](CC[C@]4(O)C[C@@H](O)CC[C@]34C=O)[C@@]1(O)CC[C@@H]2C1=CC(=O)OC1 [Strophanthidin]
# output 99.2 % of ctl

# input Give the reported MTT (% of ctl) for this compound. CCC(C(N)=O)c1ccccc1 (stereo not drawn) [Fenbutyramide]
# output 108.6 % of ctl
